Provide the reported apparent KD of MS2 coat protein of each item.
tested on: MS2 coat protein; experiment: apparent KD of MS2 coat protein; designed switch direction (-1 OFF switch, 1 ON switch): -1; higher = weaker reporter binding; conditions: input ligand: FMN 200 uM
Give the number; nM is assumed, so skip it.

query: Retrieve apparent KD of MS2 coat protein measured for ACAUGAGGAUCACCCAUGUCUGGCUGGUCCGCUCCGGCUGUUGAGGAUAUAGCUCGGUGUCCGCGCUAGAAGGUGAGGGCCGGC [Aenatbe mod 33] (Eterna round: R96, puzzle: Exclusion NG 3) and print it.
result: 22.4

query: Determine from records and report apparent KD of MS2 coat protein for GACAUGAGGAUCACCCAUGUAACCAGGGCAAUUCUCGAAAUGGAGGAUAUGAAUCUUAAUUAGGUUCAGAAGGCCAGAAGGCUA [Eternabot solution 29] (Eterna round: R96, puzzle: Exclusion NG 3)
result: 784

query: Let me know recorded apparent KD of MS2 coat protein for UUCGUACAGCAAAGCUGUACGCGUACAUGAGGAUCACCCAUGUAGGAUAUGGUAGGCAAAGCUUACUAGAAGGAUAGAGUGAUC [Mat - Exclusion NG 3 - Mod of JL - D76] (Eterna round: R96, puzzle: Exclusion NG 3) , thanks.
result: 593

query: Let me know recorded apparent KD of MS2 coat protein for AGUACUAUCACGAAAGUGAUAGUACAAUAAGCUAGUGAAACAUGAGGAUCACCCAUGUCCUCAUUAGCUCGUCUUAU [JL turnoff v2 78] (Eterna round: R96, puzzle: Sensor v2, turn-off variant 2) , thanks.
result: 14

query: Return the recorded apparent KD of MS2 coat protein value; entry: GAUUAACAUGAGGAUCACCCAUGUGAGGAUAUGGACUUGCCCACUUUCCCAUUAGAGUCUAGAAGGCGCAUCUG [1986#24] (Eterna round: R97, puzzle: Exclusion 1)
result: 37.2

query: Read off the recorded apparent KD of MS2 coat protein for UUUAUAUAUGAAGGAUAUACUUAACAUGAGGAUCACCCAUGUGGUGUUGUGAGUGAGUGAGUUUAGUAGAAGGUCAAGUAUUUU [JMF's solution 49] (Eterna round: R96, puzzle: Exclusion NG 2)
result: 719

query: Item ACUAAUUGAGGAUAUACAUUGAUUUACAUGAGGAUCACCCAUGUUCAAACAUGUAUUUAUGUAGAAGGCAGAAGAA [JR_Ex5_Sub065] (Eterna round: R97, puzzle: Exclusion 5) : provide apparent KD of MS2 coat protein
result: 23

query: Kindly indicate its recorded apparent KD of MS2 coat protein. Item: ACCUCACAUGAGGAUCACCCAUGUCAGGAUAUCUUUUAAAACGCGAAUCGCGUCGCUGAGAGAAGGGACAUUAA [EX1 #21] (Eterna round: R97, puzzle: Exclusion 1)
result: 99.6

query: Return value of apparent KD of MS2 coat protein for input UGAGCUUCAGGAUAUACAAGGCGACCGUGAGGUCGAAGGUUACAUGAGGAUCACCCAUGUAGAAGGGAAGUUCU [Mat - Exclusion 2 - JL Mod - D13] (Eterna round: R97, puzzle: Exclusion 2) , no commentary.
result: 36.7

query: Give reported apparent KD of MS2 coat protein value for UUUUGACAUGAGGAUCACCCAUGUUAGGAUAUCUUAAGGGAUGGAACAGGGUCGGAACAGAGAAGGAGCGUGGG [EX1 B.26] (Eterna round: R97, puzzle: Exclusion 1)
result: 82.4

query: // fetch apparent KD of MS2 coat protein given entry AGAUCGAGUGUGAGGAUAUUGACCGGACGACCCAUCGAGAAGGCACAUGAGGAUCACCCAUGUGAUUCGGUUCA [Brourd's EX4 #57] (Eterna round: R97, puzzle: Brourd's mod of Exclusion 4)
result: 27.1

query: Give reported apparent KD of MS2 coat protein value for GCAGUAUGAGUUAGGAUAUGAUGAUUUGAAAUGGGUCAGAAGGAACUUGAGGAUCACCCAAGUAAUGAAUUGGU [JR_BMEx4_Sub073] (Eterna round: R97, puzzle: Brourd's mod of Exclusion 4)
result: 94.6

query: Look up apparent KD of MS2 coat protein of UUAAUUUAAGGGAUAGAUCAUUACAUGAGGAUCACCCAUGUUGAGGAUAUCAGCUCGUGUAGAGCUGAGAAGGCAACAAUAGGG [ExNG3/14-A3] (Eterna round: R96, puzzle: Exclusion NG 3) and report it.
result: 249

query: Tell us which apparent KD of MS2 coat protein value is on record for ACAUGAGGAUCACCCAUGUCCGGCUGGUCUGUUCCGGCUGUCGAGGAUAUAGUCCGGUGUUCGCGCUAGAAGGCGGGAGCUGGA [Aenatbe mod 51] (Eterna round: R96, puzzle: Exclusion NG 3)
result: 67.5

query: Fill in apparent KD of MS2 coat protein for record AACAGGUCAGGAUAUACAUGAGGAUCACCCAUGUAGACUUCUGGUCUACCUUGACCGUGUAGAAGGGACCUGAA [Exclusion 3 (MOD2 of #98 Marzena11)] (Eterna round: R97, puzzle: Exclusion 3)
result: 43.9

query: Specify reported apparent KD of MS2 coat protein for the sequence shown: AUUGUUUAUGUAGGAUAUGCCUGGCGUGCCUUCGCAGAAGGACAUGAGGAUCACCCAUGUAUUGCGGUCUGCGUUCAGAUCGCG [salish99_ExNG1_r4_026] (Eterna round: R96, puzzle: Exclusion NG 1)
result: 65.3

query: Return apparent KD of MS2 coat protein (reported value) for this sequence: ACAUGACAUGAGGAUCACCCAUGUUAGGAUAUCCCUCGUCCUGACUGAACGUCGGAAUGGAGAAGGAGCAUGGC [Eternabot (L2) Solution 88] (Eterna round: R97, puzzle: Exclusion 1)
result: 47.1

These data points were gathered from the supplement of paper PMC9170038.
